# Selectivity ratio per entry
- Organism: Homo sapiens
- TEST PROTOCOL: Selectivity index, ratio of inhibition of full length human JNK1 (M1 to Q384 residues) expressed in mammalian expression system assessed as residual percent of control binding at 100 nM relative to control to inhibition of partial length human MKK4 (S84 to D399 residues) expressed in mammalian expression system assessed as residual percent of control binding at 100 nM relative to control

A selection of reference data follows.
COMPOUND SMILES: CCCS(=O)(=O)Nc1ccc(F)c(C(=O)c2n[nH]c3ncc(-c4ccc(C(C)(C)C)cc4)cc23)c1F
Selectivity ratio: < 3
--
COMPOUND SMILES: CCCS(=O)(=O)Nc1ccc(F)c(C(=O)c2n[nH]c3ncc(-c4cccc(N)c4)cc23)c1F
Selectivity ratio: > 30
--
COMPOUND SMILES: CCCCS(=O)(=O)Nc1cccc(C(=O)c2n[nH]c3ncc(-c4ccc5c(c4)OCCO5)cc23)c1F
Selectivity ratio: < 3

The compound identified as CCCS(=O)(=O)Nc1ccc(F)c(C(=O)c2n[nH]c3ncc(-c4ccc(-c5nnn[nH]5)cc4)cc23)c1F registered its Selectivity ratio at > 30

Recorded Selectivity ratio (compound CCCS(=O)(=O)Nc1ccc(F)c(C(=O)c2n[nH]c3ncc(-c4ccc(C(N)=O)cc4)cc23)c1F ): > 30

The compound listed as CCCS(=O)(=O)Nc1c(F)ccc(C(=O)c2n[nH]c3ncc(-c4ccc(C(=O)O)cc4)cc23)c1F has a reported Selectivity ratio of > 30

Lookup result for O=C(c1ccc(F)c(NS(=O)(=O)Cc2ccccc2)c1F)c1n[nH]c2ncc(-c3ccncc3)cc12 ; measured Selectivity ratio: > 30

Entry under test: CCCS(=O)(=O)Nc1ccc(F)c(C(=O)c2n[nH]c3ncc(-c4ccc(N(C)C)cc4)cc23)c1F . Its Selectivity ratio was > 30

Entry under test: CCCS(=O)(=O)Nc1ccc(F)c(C(=O)c2n[nH]c3ncc(-c4ccc(S(N)(=O)=O)cc4)cc23)c1F . Its Selectivity ratio was > 30

Lab note: CCCS(=O)(=O)Nc1ccc(F)c(C(=O)c2n[nH]c3ncc(-c4cc(Cl)cc(Cl)c4)cc23)c1F gave Selectivity ratio of < 3

---

- Organism: Homo sapiens
- TEST PROTOCOL: Selectivity index, ratio of inhibition of full length human JNK1 (M1 to Q384 residues) expressed in mammalian expression system assessed as residual percent of control binding at 100 nM relative to control to inhibition of partial length human MKK4 (S84 to D399 residues) expressed in mammalian expression system assessed as residual percent of control binding at 100 nM relative to control
Selectivity ratio listing for selected compounds.

Field: example entries. Status: answers known.
COMPOUND SMILES: CCCS(=O)(=O)Nc1ccc(F)c(C(=O)c2n[nH]c3ncc(-c4ccc(Cl)c(C(F)(F)F)c4)cc23)c1F
Selectivity ratio: > 30

COMPOUND SMILES: CCCS(=O)(=O)Nc1ccc(F)c(C(=O)c2n[nH]c3ncc(-c4ccc(S(=O)(=O)NC(C)=O)cc4)cc23)c1F
Selectivity ratio: > 30

Okay, next one:
# Selectivity ratio (compound: CCCS(=O)(=O)Nc1ccc(F)c(Sc2n[nH]c3ncc(-c4ccc(Cl)cc4)cc23)c1F ) is < 3

---

Selectivity ratio overview
- Species: Homo sapiens
- TEST PROTOCOL: Selectivity index, ratio of inhibition of full length human MKK7 (M1 to R419 residues) expressed in mammalian expression system assessed as residual percent of control binding at 100 nM relative to control to inhibition of partial length human MKK4 (S84 to D399 residues) expressed in mammalian expression system assessed as residual percent of control binding at 100 nM relative to control

MOLECULE: CCCS(=O)(=O)Nc1ccc(F)c(C(=O)c2n[nH]c3ncc(-c4ccc(S(C)(=O)=O)cc4)cc23)c1F
REPORTED RESULT: > 30

MOLECULE: CCCS(=O)(=O)Nc1ccc(F)c(C(=O)c2n[nH]c3ncc(-c4cccc(C)c4)cc23)c1F
REPORTED RESULT: 3

MOLECULE: O=C(c1ccc(F)c(NS(=O)(=O)Cc2ccccc2)c1F)c1n[nH]c2ncc(-c3ccncc3)cc12
REPORTED RESULT: > 30

MOLECULE: CCCS(=O)(=O)Nc1ccc(F)c(C(=O)c2n[nH]c3ncc(-c4ccccc4OC)cc23)c1F
REPORTED RESULT: > 30

# Selectivity ratio of CCCS(=O)(=O)Nc1ccc(F)c(C(=O)c2n[nH]c3ncc(-c4ccc(C(C)C)cc4)cc23)c1F = 3

Noted for CCCS(=O)(=O)Nc1ccc(F)c(C(=O)c2n[nH]c3ncc(-c4ccc(N)cc4)cc23)c1F : its Selectivity ratio reads > 30

For record CCCS(=O)(=O)Nc1ccc(F)c(C(=O)c2n[nH]c3ncc(-c4ccc(OC)cc4)cc23)c1F the listed Selectivity ratio is 10

The molecule listed as CCCS(=O)(=O)Nc1ccc(F)c(C(=O)c2n[nH]c3ncc(-c4ccc(C)cc4)cc23)c1F has a reported Selectivity ratio of 10

---

- Species on record: Homo sapiens
- TEST PROTOCOL: Selectivity index, ratio of inhibition of full length human MKK7 (M1 to R419 residues) expressed in mammalian expression system assessed as residual percent of control binding at 100 nM relative to control to inhibition of partial length human MKK4 (S84 to D399 residues) expressed in mammalian expression system assessed as residual percent of control binding at 100 nM relative to control
A collection of molecules and their measured Selectivity ratio

The following molecules have reported results that may help.
COMPOUND SMILES: CCCS(=O)(=O)Nc1ccc(F)c(C(=O)c2n[nH]c3ncc(-c4ccc(S(N)(=O)=O)cc4)cc23)c1F
PARAMETER MEASURED: Selectivity ratio
REPORTED RESULT: > 30
//
COMPOUND SMILES: CCCS(=O)(=O)Nc1c(F)ccc(C(=O)c2n[nH]c3ncc(-c4ccc(C(=O)O)cc4)cc23)c1F
PARAMETER MEASURED: Selectivity ratio
REPORTED RESULT: > 30
//
COMPOUND SMILES: CCCS(=O)(=O)Nc1ccc(F)c(C(=O)c2n[nH]c3ncc(-c4ccc(Cl)c(Cl)c4)cc23)c1F
PARAMETER MEASURED: Selectivity ratio
REPORTED RESULT: < 3
//
COMPOUND SMILES: CCCS(=O)(=O)Nc1ccc(F)c(C(=O)c2n[nH]c3ncc(-c4ccc(C(=O)O)cc4)cc23)c1F
PARAMETER MEASURED: Selectivity ratio
REPORTED RESULT: > 30
//
COMPOUND SMILES: CCCS(=O)(=O)Nc1ccc(F)c(C(=O)c2n[nH]c3ncc(-c4cc(Cl)cc(Cl)c4)cc23)c1F
PARAMETER MEASURED: Selectivity ratio
REPORTED RESULT: < 3

Field Selectivity ratio (entry CCCS(=O)(=O)Nc1ccc(F)c(C(=O)c2n[nH]c3ncc(-c4ccccc4)cc23)c1F ) reads > 30

---

- Species on record: Homo sapiens
- TEST PROTOCOL: Selectivity index, ratio of inhibition of full length human MKK7 (M1 to R419 residues) expressed in mammalian expression system assessed as residual percent of control binding at 100 nM relative to control to inhibition of partial length human MKK4 (S84 to D399 residues) expressed in mammalian expression system assessed as residual percent of control binding at 100 nM relative to control
PARAMETER MEASURED: Selectivity ratio

COMPOUND: CCCS(=O)(=O)Nc1ccc(F)c(C(=O)c2n[nH]c3ncc(-c4ccc(F)cc4)cc23)c1F
Selectivity ratio: > 30
--
COMPOUND: CCCS(=O)(=O)Nc1ccc(F)c(C(=O)c2n[nH]c3ncc(-c4ccc(C(C)(C)C)cc4)cc23)c1F
Selectivity ratio: < 3
--
COMPOUND: CCCS(=O)(=O)Nc1ccc(F)c(C(=O)c2n[nH]c3ncc(-c4ccc(S(=O)(=O)NC(C)=O)cc4)cc23)c1F
Selectivity ratio: > 30
--
COMPOUND: CCCS(=O)(=O)Nc1ccc(F)c(C(=O)c2n[nH]c3ncc(-c4cccc(OC)c4)cc23)c1F
Selectivity ratio: 10
--
COMPOUND: CCCS(=O)(=O)Nc1ccc(F)c(C(=O)c2n[nH]c3ncc(-c4ccccc4F)cc23)c1F
Selectivity ratio: > 30

Below: the item to evaluate.
Selectivity ratio measured on CCCS(=O)(=O)Nc1ccc(F)c(C(=O)c2n[nH]c3ncc(-c4ccc(S(=O)(=O)NCC(O)CO)cc4)cc23)c1F (stereo not given) = > 30

---

Listed here are compounds together with their documented Selectivity ratio.
- Species: Homo sapiens
- TEST PROTOCOL: Selectivity index, ratio of inhibition of full length human MKK7 (M1 to R419 residues) expressed in mammalian expression system assessed as residual percent of control binding at 100 nM relative to control to inhibition of partial length human MKK4 (S84 to D399 residues) expressed in mammalian expression system assessed as residual percent of control binding at 100 nM relative to control

COMPOUND: CCCCS(=O)(=O)Nc1cccc(C(=O)c2n[nH]c3ncc(-c4ccc5c(c4)OCCO5)cc23)c1F
PARAMETER MEASURED: Selectivity ratio
REPORTED RESULT: 3
//
COMPOUND: CCCS(=O)(=O)Nc1ccc(F)c(C(=O)c2n[nH]c3ncc(-c4cccc(N)c4)cc23)c1F
PARAMETER MEASURED: Selectivity ratio
REPORTED RESULT: > 30

Short answer for CCCS(=O)(=O)Nc1ccc(F)c(C(=O)c2n[nH]c3ncc(-c4cccc(Cl)c4)cc23)c1F : Selectivity ratio was < 3

compound CCCS(=O)(=O)Nc1ccc(F)c(C(=O)c2n[nH]c3ncc(-c4ccc(Cl)cc4Cl)cc23)c1F , Selectivity ratio observed: 3

For CCCS(=O)(=O)Nc1ccc(F)c(C(=O)c2n[nH]c3ncc(-c4ccc(O)cc4)cc23)c1F the compound record lists Selectivity ratio as > 30
